B1: Chaperone Ric-8A, Q5E9J8 (parent)
chain: MEPRAVADALETGEEDVVMEALRAYNRENSQSFTFDDAQQEDRKRLAKLLVSVLEQGLPPSRRVIWLQSIRILSRDRSCLDSFTSRRSLQALACYAGISASQGSVPEPLNMDVVLESLKCLCNLVLSSPVAQALAAEAGLVVRLAERVGLCRQSSFPHDVQFFDLRLLFLLTALRTDVRQQLFQELQGVRLLTRALELTLGMTEGERHPELLPPQETERAMEILKVLFNITFDSIKREVDEEDAALYRHLGTLLRHCVMLAAAGDRTEELHGHAVNLLGNLPVKCLDVLLTLEPHEGSLEFLGVNMDVIRVLLSFMEKRLHQTHRLKESVAPVLSVLTECARMHRPARKFLKAQVLPPLRDVRTRPEVGELLRNKLVRLMTHLDTDVKRVAAEFLFVLCSESVPRFIKYTGYGNAAGLLAARGLMAGGRPEGQYSEDEDTDTDEYKEAKASINPVTGRVEEKPPNPMEGMTEEQKEHEAMKLVNMFDKLSRHRVIQPMGMSPRGQLTSLQDAMCETMEGQLSSDPDSDPD

- Variants of: B1
- RUN PARAMETERS: Bos taurus; pH 7.5; Thermal; DSF; Tris-HCl; KCl; structure 6N85; whole UniProt chain shown

[
  {
    "VARIANT LABEL": "F169R",
    "Tm, °C": 45.6
  },
  {
    "VARIANT LABEL": "N123E",
    "Tm, °C": 46.7
  },
  {
    "VARIANT LABEL": "R75M",
    "Tm, °C": 45.9
  },
  {
    "VARIANT LABEL": "A173W",
    "Tm, °C": 45.6
  }
]
